# System: Rh30 cells
# procedure_summary: Growth inhibition of adenovirus-transduced Rh30 cells by CPT-11
# Type: cell-based
# recorded_conditions: Homo sapiens, Rh30, read-out: CPT-11 IC50, AdVC, no enzyme
endpoint_name: IC50 (µM)
Answer in µM, number only, no unit symbol.

Read the entry `CCc1c2c(nc3ccc(OC(=O)N4CCC(N5CCCCC5)CC4)cc13)-c1cc3c(c(=O)n1C2)COC(=O)[C@]3(O)CC` and write its reported IC50.
64.3

====

# Test system: SK-N-As cells
# procedure_summary: Growth inhibition of adenovirus-transduced SK-N-As cells by CPT-11
# Type: cell-based
# recorded_conditions: Homo sapiens, read-out: CPT-11 IC50, AdCMVrCE, rCE
endpoint_name: IC50 (µM)
Just the number please, in µM, no unit attached.

Give the measured IC50 for CCc1c2c(nc3ccc(OC(=O)N4CCC(N5CCCCC5)CC4)cc13)-c1cc3c(c(=O)n1C2)COC(=O)[C@]3(O)CC [CPT-11]
0.6

====

# Tested on: U373MG cells
# procedure_summary: Growth inhibition by CPT-11 of U373MG cells
# Type: cell-based, human
# recorded_conditions: Homo sapiens, U373 MG, read-out: CPT-11 IC50; U373IRES cells (pIRESneo, no enzyme expressed)
endpoint_name: pIC50
# pIC50: negative log10 of molar concentration; output just the value

Please give the documented pIC50 of `CCc1c2c(nc3ccc(OC(=O)N4CCC(N5CCCCC5)CC4)cc13)-c1cc3c(c(=O)n1C2)COC(=O)[C@]3(O)CC`
4.62

====

# Test system: Rh30 cells
# procedure_summary: Growth inhibition of adenovirus-transduced Rh30 cells by CPT-11
# Assay type: cell-based
# recorded_conditions: Homo sapiens, Rh30, read-out: CPT-11 IC50, AdCMVrCE, rCE
endpoint_name: pIC50
In simple prose, pIC50 is minus the logarithm base ten of a concentration in moles per litre.

Answer briefly: pIC50 recorded on Rh30 cells for `CCc1c2c(nc3ccc(OC(=O)N4CCC(N5CCCCC5)CC4)cc13)-c1cc3c(c(=O)n1C2)COC(=O)[C@]3(O)CC`
5.47
